This collection of values is drawn from ChEMBL document CHEMBL1201862.

- Test system: UO-31
- MEASUREMENT_DESCRIPTION: NCI tumour cell line growth inhibition, 48 h
The source made the active and inactive calls. Cut-off read from the data, not from the text of the source: active = GI50 up to about 1.1 µM and inactive = higher.
Result category, one only: active, inactive

Illustrative cases are given below, each with its answer.
Clc1ccc(COC(Cn2ccnc2)c2ccc(Cl)cc2Cl)cc1 (stereo unspecified) [ECONAZOLE NITRATE] : inactive
O=c1c2ccccc2n2nnc3ccc(NCCNCCO)c1c32 : active
CCOC(=O)CC1NC(=O)CS1 (stereo unspecified) : inactive

Recorded call for O=C1CSC2(CC(/C=C/C=C/c3ccccc3)=NN2c2cccc(S(=O)(=O)O)c2)N1c1nc2ccccc2s1 (stereo unspecified) ?
inactive

For Nc1ccc(-c2nc3ccc(F)cc3s2)cc1 , what call appears in the results of this test?
inactive

Status in this test for CCCCCc1cc(CCCC)sc1-c1ccco1 ?
inactive

----------
- Test system: COLO 205
- MEASUREMENT_DESCRIPTION: NCI tumour cell line growth inhibition, 48 h
The source made the active and inactive calls. Cut-off read from the data, not from the text of the source: active = GI50 up to about 1.1 µM and inactive = higher.
API: response.call in active, inactive

A selection of reference data follows.
O=c1sc2c(s1)SSSSS2 : inactive
CC(C)(C)OC(=O)N1N=NC2C1C1CC(OCc3ccccc3)(OCc3ccccc3)C2O1 (configuration not stated) : inactive
CS(=O)(=O)CSCSSCS(C)(=O)=O : inactive
O=C(O)CC/C(=N\Nc1nsc2ccccc12)c1ccccc1 : inactive
O=C(Cc1nc2ncccc2[nH]c1=O)c1c[nH]c2ccccc12 : inactive
CCOC(=O)CCn1[nH]c(=O)c(Cl)c(Cl)c1=O : inactive
NC(=O)c1cccc(C2OC(COP(=O)(O)O)C(O)C2O)c1 (configuration not stated) : inactive
O=c1oc2cc(/N=C/c3ccccc3Cl)ccc2c2ccccc12 : inactive

Recorded test outcome, item CC1=NN(c2cccc(Cl)c2)C2(C1=C/C=C/c1ccccc1)C(Cl)C(=O)N2c1nc2ccccc2s1 (configuration not stated)
inactive

----------
Reported GI50 values, HCT-15.
# unit: µM | format: bare number

The cases that follow already have their GI50 on record.
COc1cc(CNc2ccc(SC)cc2)cc(OC)c1OC : 4.08
O=c1oc2c/c(=C\c3ccccc3)c(=O)c3cccc1c3-2 : 36.6
CC(C)CC/N=c1/cc2n(-c3ccc(Cl)cc3)c3ccccc3nc-2cc1Nc1ccc(Cl)cc1 : 3.42

Field: next compound
Hi! What's the reported GI50 for CS(=O)(=O)c1ccc2nc(-c3ccc(O)cc3)sc2c1 on HCT-15?
16.9

----------
- Test system: A498
- MEASUREMENT_DESCRIPTION: NCI tumour cell line growth inhibition, 48 h
Activity calls are given as the source filed them. No stated cut-off is given here; in the data, active = GI50 up to about 1.1 µM and inactive = higher.
ENDPOINT_NAME: GI50

Check out these entries, answers already filled in.
O=C(c1ccccc1)C(c1ccccc1)C1(O)C(=O)Nc2ccccc21 (stereo unspecified) : > 100 µM (inactive)
COc1cc(CNc2ccc(SC)cc2)cc(OC)c1OC : 22 µM (inactive)
Cc1nc(Nc2ccccc2Cl)sc1C(=O)CC(=O)C(N)=O : 19.7 µM (inactive)
CC(C)(C)c1ccc(O)c(Br)c1 : > 100 µM (inactive)
O=c1cnn(C/C=C/CP(=O)(O)O)c(=O)[nH]1 : > 100 µM (inactive)

Now look at this one.
What does the record list as GI50 for CN(C)/N=N/c1ccc2[nH]c(=O)[nH]c2c1 ?
> 100 µM (inactive)
